- Test system: Rattus norvegicus
- test details: Effect of compound on liver TG levels in male Dawley rats at the dose of 0.4 mmol/kg
- Assay type: functional
- Design: unit: g/100 g wet liver
metric name: Liver TG

These recorded examples may help you get a feel for the data.
> print(dat)
                                   compound  metric.name  endpoint.value
1  CCOC(=O)C(C)(C)Oc1ccc(Cl)cc1 [CLOFIBRATE]     Liver TG            1.84
2  NC1=C(O)C(=O)C(c2ccc(Cl)cc2)O1 (centres undefined)     Liver TG             2.8

Q: For O=C1OC(c2ccc(Cl)cc2)C(=O)C1=O (centres undefined) , write its Liver TG.
Result: 3.76

Q: For O=C1C(O)=C(O)OC1c1ccc(Cl)cc1 (centres undefined) , write its Liver TG.
Result: 5.08
